- protocol_details: yeast display, Sf9 membrane polyspecificity reagent, FACS + sequencing; frameworks hold sequencing errors
observable: polyreactivity (PSR sort gate)

Example entries and their recorded answers appear below.
* QVQLVESGGGLVQAGGSLRLSCAASGRIFRYYTMGWYRQAPGKERELVATITSDGRTNYADSVKGRFTISRDNAKNTVYLQMNSLKPEDTALYYCAAVYHRSYSLQSYGYWGQGTQVTVSS | high polyreactivity
* QVQLVESGGGLVQAGGSLRLSCAASGRIFRPYAMGWYRQAPGKERELVAGITSSGGSTYYADSVKGRFTISRDNAKNTVYLQMNSLKPEDTAVYYCAADYGWGSGFEYDYWGQGTQVTVSS | low polyreactivity
* QVQHEESGGGLVQAGGRLRLSCAASGRTFFSNAMGWYRQAPGKERELVAAISNGDNTYYADSVKGRFTISRDNAKNTVYLQMNSLKPEDTAVYYCATAYPEWAVWGYDYWGQGTQVTVSS | low polyreactivity
* QVQLVESGGGLVQAGGSLRLSCAASGFIFQANAMGWYRQAHGKERELVAAIRSGDRTYYADSVKGRFTISRDNAKNTVYLQMNSLKPEDTAVYYCAAFYHHYYRYDYWGQGTQVTVSS | low polyreactivity

Now, please, on to the next sequence.
Documented polyreactivity (PSR sort gate) of `QVQLVESGGGLVQAGGSLRLSCAASGSTFWTNAMGWYRQAPGKERELVAAISRSGGSTYYADSVKGRFTISRDNAKNTVYLQMNSLKPEDTAVYYCNAVLPYYRGSHYDYWGQGTQVTVSS` : high polyreactivity

* * *

- protocol_details: yeast display, Sf9 membrane polyspecificity reagent, FACS + sequencing; frameworks hold sequencing errors
observable: polyreactivity (PSR sort gate)

Example entries and their recorded answers appear below.
* QDQLVESGGGLVQAGGSLRLSCDASGSTFYRYDMGRSRQAPGKERELFAAINQSGDSTYYADSVKGRFTISRDKAKNTVYLQMNSLKPEDTAVYYCAAVRSRYLAFYYWGQCTQVTVSS | low polyreactivity
* QVQHVESGGGLVQAGGSHRLSCAASGSTFTYYAMGWYRQAPGKERELVAAISRGGSTYYADSVKGRFTISRDNAKNTVYLKKYSLKPEDTAVYYCAAERGYKKWSRGYWGQGTLVTVSS | high polyreactivity
* QVQLVESVGGLVQAGGSLRFSCAASGRIFKWYAMGWYRQAPGKEREFVAGIRWGGGRTHYADSVKGRFTISRDNAKNTVYLQMNSLKPEDTAVYYCAADNRGNTVYYRNYYWGQGTQVTVSS | high polyreactivity
* QVQLVESGGGLVQAGGSLRLSCAASGRIFRHNAMGWYRQAPGKERELVAAISGGGTTYYADSVKGRFTISRDNAKNTVYLQMNSVKPEDTAVYYCAARRRGSVGVGYAYPYNYWGQGTQVTVSS | high polyreactivity
* QVQRVESGGGLVQAGGSLRLSCAASGSIFASNAMGWYRQAPGKERELVADISGTTGSTYYADSVKGRFTISRDNAKNTVYLQMNSLKPEDTAVYYCAADLVWVSTSYYYWGQGTQVTVSS | low polyreactivity

Please state, for each entry, its recorded polyreactivity (PSR sort gate).
1. QVQLVESGGGLVQAGGSLRLSCAASGSTFAPNAMGWYRQAPGKERELVAAIRFDTGSTYYADSVKGRFTISRDNAKNTVYLQMNSLKPEDTAVYYCAAYNHYLSESDYWGQGTQVTVSS
2. QVQLVESGGGLVQAGGSLRLSCAASGRIFPYYDMGWYRQAPGKERELVAGITTSGGTTYADSVKGRFTISRDNAKNTVYLQMNSLKTEDTAVYYCNKLRLRLSRWTYDYWGHGTQVTVSS
3. QVQLVESGGGLVQAGGSLRLSCAASGFIFDRNAMGWYRQAPGKEREFVAAITRRGGTTYYADSVKGRFTISRDNAKNTVYLQMNSLKPEDTAVYYCAATYLHVYRRRFYYWGQGTQVTVSS

a:
low polyreactivity
low polyreactivity
high polyreactivity
